Just for reference, paper PMC4912453 is where these values come from.

system-tested: DNA polymerase α catalytic subunit (POLA1) (Homo sapiens, UniProt P09884, L700S)
Sequence (P09884 335-1257 L700S): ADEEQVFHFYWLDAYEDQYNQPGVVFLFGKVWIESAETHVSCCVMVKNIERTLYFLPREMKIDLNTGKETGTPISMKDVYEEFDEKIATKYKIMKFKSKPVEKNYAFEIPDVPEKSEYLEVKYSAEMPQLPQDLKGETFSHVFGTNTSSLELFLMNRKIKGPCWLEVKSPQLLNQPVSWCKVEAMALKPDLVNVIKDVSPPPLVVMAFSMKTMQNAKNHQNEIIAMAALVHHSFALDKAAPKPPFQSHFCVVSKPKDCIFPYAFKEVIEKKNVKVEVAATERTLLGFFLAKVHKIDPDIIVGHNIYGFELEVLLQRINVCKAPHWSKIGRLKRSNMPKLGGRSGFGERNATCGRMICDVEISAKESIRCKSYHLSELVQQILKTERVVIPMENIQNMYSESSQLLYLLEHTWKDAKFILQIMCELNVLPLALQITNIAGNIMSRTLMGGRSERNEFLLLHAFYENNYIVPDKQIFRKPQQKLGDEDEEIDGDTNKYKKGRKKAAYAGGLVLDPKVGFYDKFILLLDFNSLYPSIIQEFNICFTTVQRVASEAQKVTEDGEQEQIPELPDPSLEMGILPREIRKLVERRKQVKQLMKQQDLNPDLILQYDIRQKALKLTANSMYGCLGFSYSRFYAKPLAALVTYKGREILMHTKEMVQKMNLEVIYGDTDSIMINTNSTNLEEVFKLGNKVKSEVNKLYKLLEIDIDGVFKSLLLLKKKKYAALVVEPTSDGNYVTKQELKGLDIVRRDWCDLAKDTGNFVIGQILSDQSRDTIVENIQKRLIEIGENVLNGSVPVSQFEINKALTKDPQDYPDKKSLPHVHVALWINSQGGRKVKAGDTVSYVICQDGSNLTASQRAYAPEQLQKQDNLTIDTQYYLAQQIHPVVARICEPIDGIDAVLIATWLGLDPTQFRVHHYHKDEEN
procedure-summary: CD437 fluorescence intensity enhancement titration
pKd: −log10 of the molar value.
reported-property: pKd

## Input Record O=C(O)c1ccc2cc(-c3ccc(O)c(C45CC6CC(CC(C6)C4)C5)c3)ccc2c1 : what is its pKd with DNA polymerase α catalytic subunit (POLA1) (Homo sapiens, UniProt P09884, L700S)?
## Output > 8.30
